test target: α4β7 integrin (Homo sapiens, UniProt P13612+P26010)
Construct: monitoring the capture of α4β7 integrin expressing cells on a recombinant MadCAM-1 extracellular domain-coated plate; endogenous in cells; host or cells: RPMI8866 cells
Sequence (P13612 34-1032): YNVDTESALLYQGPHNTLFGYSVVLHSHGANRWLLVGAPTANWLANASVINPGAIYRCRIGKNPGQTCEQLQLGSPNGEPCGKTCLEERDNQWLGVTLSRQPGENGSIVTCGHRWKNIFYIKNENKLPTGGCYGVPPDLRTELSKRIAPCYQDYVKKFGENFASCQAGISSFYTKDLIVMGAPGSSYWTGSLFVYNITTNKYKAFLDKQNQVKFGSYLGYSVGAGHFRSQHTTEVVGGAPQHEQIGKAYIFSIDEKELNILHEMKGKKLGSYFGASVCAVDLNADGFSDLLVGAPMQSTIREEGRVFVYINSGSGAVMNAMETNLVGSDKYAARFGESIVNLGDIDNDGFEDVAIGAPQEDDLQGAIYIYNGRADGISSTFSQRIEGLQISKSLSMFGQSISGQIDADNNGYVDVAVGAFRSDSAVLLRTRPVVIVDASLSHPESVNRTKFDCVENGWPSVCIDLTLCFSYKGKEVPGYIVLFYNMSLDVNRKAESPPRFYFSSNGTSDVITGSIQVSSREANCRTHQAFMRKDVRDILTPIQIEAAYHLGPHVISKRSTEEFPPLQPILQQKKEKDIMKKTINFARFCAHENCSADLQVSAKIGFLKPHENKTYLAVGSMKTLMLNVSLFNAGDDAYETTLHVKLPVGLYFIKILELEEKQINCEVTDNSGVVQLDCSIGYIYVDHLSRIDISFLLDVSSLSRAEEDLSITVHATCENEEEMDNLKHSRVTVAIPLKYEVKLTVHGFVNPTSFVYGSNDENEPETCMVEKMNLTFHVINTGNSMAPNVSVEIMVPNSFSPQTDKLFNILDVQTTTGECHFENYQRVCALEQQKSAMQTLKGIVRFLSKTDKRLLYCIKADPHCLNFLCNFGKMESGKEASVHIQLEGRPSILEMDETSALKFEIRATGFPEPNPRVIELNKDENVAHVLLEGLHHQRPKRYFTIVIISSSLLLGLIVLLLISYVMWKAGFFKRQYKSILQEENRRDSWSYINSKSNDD
Sequence (P26010 20-798): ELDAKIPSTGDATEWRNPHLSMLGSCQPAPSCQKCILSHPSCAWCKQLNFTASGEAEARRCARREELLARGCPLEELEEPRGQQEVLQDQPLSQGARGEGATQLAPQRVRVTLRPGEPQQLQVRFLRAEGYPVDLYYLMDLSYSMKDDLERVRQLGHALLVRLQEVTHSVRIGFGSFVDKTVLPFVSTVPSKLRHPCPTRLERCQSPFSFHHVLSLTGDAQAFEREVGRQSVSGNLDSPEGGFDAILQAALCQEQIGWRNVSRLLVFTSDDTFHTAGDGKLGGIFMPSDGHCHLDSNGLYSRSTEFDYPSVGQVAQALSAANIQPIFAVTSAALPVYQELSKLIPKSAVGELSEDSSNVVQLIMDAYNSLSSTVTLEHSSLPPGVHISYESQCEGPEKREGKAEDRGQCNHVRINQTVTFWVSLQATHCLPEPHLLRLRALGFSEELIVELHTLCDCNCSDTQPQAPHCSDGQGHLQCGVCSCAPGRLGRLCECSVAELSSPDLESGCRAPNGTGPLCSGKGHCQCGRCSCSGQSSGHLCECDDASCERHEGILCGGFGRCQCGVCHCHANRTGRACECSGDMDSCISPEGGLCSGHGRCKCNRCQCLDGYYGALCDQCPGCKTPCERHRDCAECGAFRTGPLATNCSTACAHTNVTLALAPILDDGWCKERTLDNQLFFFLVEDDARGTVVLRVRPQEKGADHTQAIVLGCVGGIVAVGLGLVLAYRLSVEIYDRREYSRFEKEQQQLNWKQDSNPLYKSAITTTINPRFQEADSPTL
assay: α4β7 Integrin Cell Capture Assay
Format: cell-based
test parameters: capture of α4β7 integrin expressing RPMI8866 cells on recombinant MadCAM-1 extracellular domain-coated plate; DMEM+0.5% FBS+0.5 mM MnCl2; read-out: EC50 α4β7
Method: α4β7 Integrin Cell Capture Assay The potency of inhibitors in preventing α4β7 integrin interaction with MadCAM-1 was measured by monitoring the capture of α4β7 integrin expressing cells on a recombinant MadCAM-1 extracellular domain-coated plate. 384-Well plates (Corning 3702) were coated with MadCAM-1 extracellular domain by dispensing 20 μL of MAdCAM-1 at 1.0 μg/mL per well and incubating overnight at 4° C. […]
attribute measured: EC50 (nM)

| compound | observed value |
| --- | --- |
| CC[C@@H](Nc1cc(F)c(C(=O)N[C@@H](Cc2ccc(-c3c(C)cc(C)n(C)c3=O)c3ccccc23)C(=O)O)c(F)c1)C(F)(F)F (single isomer, unassigned) [Example 133] | 0.5 |
| Cc1c(-c2ccc(C[C@H](NC(=O)c3c(Cl)cccc3Cl)C(=O)O)c3ncccc23)c(=O)n(C)c2cc(F)ccc12 | 7.5 |
| CC[C@@H](Nc1cc(F)c(C(=O)N[C@@H](Cc2ccc(-c3c(C(F)(F)F)cc(C)n(C)c3=O)c3ccccc23)C(=O)O)c(F)c1)C(F)(F)F (single isomer, unassigned) [Example 134] | 8.3 |
| O=C(N[C@@H](Cc1ccc(-c2cc(F)c(F)cc2OC2CC2)c2ccccc12)C(=O)O)c1c(Cl)cccc1Cl | 72.6 |
| CC[C@@H](Nc1cc(F)c(C(=O)N[C@@H](Cc2ccc(-c3c(C(F)(F)F)cc(C)n(C)c3=O)c3ccccc23)C(=O)O)c(F)c1)C(F)(F)F (single isomer, unassigned) [Example 135] | 1 |

A. Cc1nn(C)nc1-c1ccc(C[C@H](NC(=O)c2c(Cl)cccc2Cl)C(=O)O)c2ncccc12
B. COc1cc(F)c(F)cc1-c1ccc(C[C@H](NC(=O)c2c(Cl)cccc2Cl)C(=O)O)c2nccc(Cl)c12 (single isomer, unassigned) [Example 95]
C. COc1cc(F)c(F)cc1-c1ccc(C[C@H](NC(=O)c2c(Cl)cccc2Cl)C(=O)O)c2nccc(Cl)c12 [Example 94]
D. CC[C@@H](Nc1cc(F)c(C(=O)N[C@@H](Cc2ccc(-c3c(OC)cc(C)n(C)c3=O)c3ccccc23)C(=O)O)c(F)c1)C(F)(F)F (single isomer, unassigned) [Example 130]
E. Cc1c(-c2ccc(C[C@H](NC(=O)c3c(Cl)cccc3Cl)C(=O)O)c3ncccc23)c(=O)n(C)c2ccccc12 (single isomer, unassigned) [Example 47]
**Query** hey, can you rank those compounds up there by EC50? biggest number first please Reply with the item labels sorted in the order that was asked for.
**Result** A, C, E, B, D
